- Assay overview: qHTS assay for re-activators of p53 using a Luc reporter: Hit Validation with no p53 Expressed
- Experimental setup: p53-null cells, luciferase reporter counter-screen; series mostly up to 46.1 µM
Inconclusive results are not listed. Activity calls are given as the source filed them. The call rests on the fitted dose curve; in most records, active means well fitted activation curve with a large enough effect; inconclusive means small, poorly fitted or top-dose-only effect; inactive means no such curve, though single readings can be large or run the other way.
Outcomes: t for active, f for inactive

Molecule: O=C(COC(=O)CNC(=O)c1ccc([N+](=O)[O-])o1)Nc1ncc(C(F)(F)F)cc1Cl
Group: f
--
Molecule: O=C(NCCC1=CCCCC1)c1ccc(F)c(S(=O)(=O)N2CCOCC2)c1
Group: f
--
Molecule: Cc1ccc(-n2c(C)cc(C(=O)CSc3nnc4ccccn34)c2C)cc1
Group: t
--
Molecule: Cc1ccc(NC(=O)/C=C/c2ccc([N+](=O)[O-])s2)c(C)c1
Group: f
--
Molecule: O=C(/C=C/c1ccccc1)NC1CCSC1=O (stereo unspecified)
Group: t
--
Molecule: COC(=O)Cc1n[nH]c(=S)[nH]c1=O
Group: f

----------
- Assay overview: qHTS assay for re-activators of p53 using a Luc reporter: Hit Validation with no p53 Expressed
- Experimental setup: p53-null cells, luciferase reporter counter-screen; series mostly up to 46.1 µM
Results filed as inconclusive are left out. Calls of active or inactive are those of the source. The call rests on the fitted dose curve; in most records, active means well fitted activation curve with a large enough effect; inconclusive means small, poorly fitted or top-dose-only effect; inactive means no such curve, though single readings can be large or run the other way.
Measure: outcome

Compound: O=C(CNS(=O)(=O)c1cccc(Cl)c1)Nc1ccc(-c2nc3ccccc3s2)cc1
Measure: outcome
Reported: inactive

Compound: Cc1cc(Br)c(S(=O)(=O)NCCN2CCOCC2)cc1C
Measure: outcome
Reported: inactive

Compound: Cc1cccnc1NC(=O)/C=C/c1ccc2c(c1)OCO2
Measure: outcome
Reported: inactive

Compound: COc1ccc(C(C)(C)C)cc1NC(=O)Nc1ccc2c(c1)OCO2
Measure: outcome
Reported: inactive

Compound: O=C(Nc1ccc(Cl)cc1)Nc1nnc(SCc2ccccc2)s1
Measure: outcome
Reported: inactive

Compound: O=C(CCc1nc(-c2ccccc2)no1)N1CCCC1
Measure: outcome
Reported: inactive

Compound: COc1ccc2oc(C(=O)Nc3nnc(C)s3)c(C)c2c1
Measure: outcome
Reported: inactive

Compound: CCOC(=O)N(Cc1ccccc1)C(C(=O)O)C(C(=O)O)N(Cc1ccccc1)C(=O)OCC (stereo not drawn)
Measure: outcome
Reported: inactive

Compound: Cc1ccc(NC(=O)c2ccc(OC(=O)C(C)Oc3ccc(Cl)cc3C)cc2)cc1 (stereo not drawn)
Measure: outcome
Reported: inactive

Compound: CCOC(=S)SCC(=O)Nc1nc(-c2ccc(Br)cc2)cs1
Measure: outcome
Reported: inactive

Compound: COc1cc(CNC2CCCCCCC2)c(Br)cc1OCCO
Measure: outcome
Reported: inactive

Compound: O=c1cc(-c2ccc3c(c2)OCCO3)oc2ccc(Cl)cc12
Measure: outcome
Reported: inactive

Compound: C=CCSC1=N/C(=C\c2cc(OCC)c(OC(C)=O)c([N+](=O)[O-])c2)C(=O)S1
Measure: outcome
Reported: inactive

Compound: CC(C)c1ccc(C(O)c2nc3ccccc3n2C)cc1 (stereo not drawn)
Measure: outcome
Reported: inactive

Compound: CC(=O)c1cccc(NS(=O)(=O)N(C)C)c1
Measure: outcome
Reported: inactive

Compound: COc1ccccc1NC(CC(=O)c1ccccc1)C(=O)OCC(=O)c1ccc(C)c(C)c1 (stereo not drawn)
Measure: outcome
Reported: inactive

Compound: Cc1ccc(NC(=O)c2cc(C)n(-c3ccccc3)c2C)cc1
Measure: outcome
Reported: inactive

Compound: CCc1cc2c(=O)c(-c3ccc4c(c3)OCCO4)coc2cc1OS(C)(=O)=O
Measure: outcome
Reported: inactive

Compound: COCCSc1nnc(NC(=O)CCS(=O)(=O)c2ccccc2)s1
Measure: outcome
Reported: inactive

Compound: Cn1cc(Cl)c(C(=O)Nc2nc3ccccc3s2)n1
Measure: outcome
Reported: inactive

Compound: O=C(NNC(=O)c1cccnc1SCc1cccc([N+](=O)[O-])c1)c1ccccn1
Measure: outcome
Reported: inactive

Compound: Cc1ccccc1Cn1nnc(-c2cccc(C(=O)O)c2)n1
Measure: outcome
Reported: inactive

Compound: Cc1nn(-c2ccccc2)c(N)c1Sc1ccc([N+](=O)[O-])cc1
Measure: outcome
Reported: inactive
